Reported inhibition at 1 µM values for a set of compounds
# System: wild-type human cardiac sodium channel, hNav1.5 (late INa) (Homo sapiens, UniProt Q14524)
# Sequence (Q14524 whole entry): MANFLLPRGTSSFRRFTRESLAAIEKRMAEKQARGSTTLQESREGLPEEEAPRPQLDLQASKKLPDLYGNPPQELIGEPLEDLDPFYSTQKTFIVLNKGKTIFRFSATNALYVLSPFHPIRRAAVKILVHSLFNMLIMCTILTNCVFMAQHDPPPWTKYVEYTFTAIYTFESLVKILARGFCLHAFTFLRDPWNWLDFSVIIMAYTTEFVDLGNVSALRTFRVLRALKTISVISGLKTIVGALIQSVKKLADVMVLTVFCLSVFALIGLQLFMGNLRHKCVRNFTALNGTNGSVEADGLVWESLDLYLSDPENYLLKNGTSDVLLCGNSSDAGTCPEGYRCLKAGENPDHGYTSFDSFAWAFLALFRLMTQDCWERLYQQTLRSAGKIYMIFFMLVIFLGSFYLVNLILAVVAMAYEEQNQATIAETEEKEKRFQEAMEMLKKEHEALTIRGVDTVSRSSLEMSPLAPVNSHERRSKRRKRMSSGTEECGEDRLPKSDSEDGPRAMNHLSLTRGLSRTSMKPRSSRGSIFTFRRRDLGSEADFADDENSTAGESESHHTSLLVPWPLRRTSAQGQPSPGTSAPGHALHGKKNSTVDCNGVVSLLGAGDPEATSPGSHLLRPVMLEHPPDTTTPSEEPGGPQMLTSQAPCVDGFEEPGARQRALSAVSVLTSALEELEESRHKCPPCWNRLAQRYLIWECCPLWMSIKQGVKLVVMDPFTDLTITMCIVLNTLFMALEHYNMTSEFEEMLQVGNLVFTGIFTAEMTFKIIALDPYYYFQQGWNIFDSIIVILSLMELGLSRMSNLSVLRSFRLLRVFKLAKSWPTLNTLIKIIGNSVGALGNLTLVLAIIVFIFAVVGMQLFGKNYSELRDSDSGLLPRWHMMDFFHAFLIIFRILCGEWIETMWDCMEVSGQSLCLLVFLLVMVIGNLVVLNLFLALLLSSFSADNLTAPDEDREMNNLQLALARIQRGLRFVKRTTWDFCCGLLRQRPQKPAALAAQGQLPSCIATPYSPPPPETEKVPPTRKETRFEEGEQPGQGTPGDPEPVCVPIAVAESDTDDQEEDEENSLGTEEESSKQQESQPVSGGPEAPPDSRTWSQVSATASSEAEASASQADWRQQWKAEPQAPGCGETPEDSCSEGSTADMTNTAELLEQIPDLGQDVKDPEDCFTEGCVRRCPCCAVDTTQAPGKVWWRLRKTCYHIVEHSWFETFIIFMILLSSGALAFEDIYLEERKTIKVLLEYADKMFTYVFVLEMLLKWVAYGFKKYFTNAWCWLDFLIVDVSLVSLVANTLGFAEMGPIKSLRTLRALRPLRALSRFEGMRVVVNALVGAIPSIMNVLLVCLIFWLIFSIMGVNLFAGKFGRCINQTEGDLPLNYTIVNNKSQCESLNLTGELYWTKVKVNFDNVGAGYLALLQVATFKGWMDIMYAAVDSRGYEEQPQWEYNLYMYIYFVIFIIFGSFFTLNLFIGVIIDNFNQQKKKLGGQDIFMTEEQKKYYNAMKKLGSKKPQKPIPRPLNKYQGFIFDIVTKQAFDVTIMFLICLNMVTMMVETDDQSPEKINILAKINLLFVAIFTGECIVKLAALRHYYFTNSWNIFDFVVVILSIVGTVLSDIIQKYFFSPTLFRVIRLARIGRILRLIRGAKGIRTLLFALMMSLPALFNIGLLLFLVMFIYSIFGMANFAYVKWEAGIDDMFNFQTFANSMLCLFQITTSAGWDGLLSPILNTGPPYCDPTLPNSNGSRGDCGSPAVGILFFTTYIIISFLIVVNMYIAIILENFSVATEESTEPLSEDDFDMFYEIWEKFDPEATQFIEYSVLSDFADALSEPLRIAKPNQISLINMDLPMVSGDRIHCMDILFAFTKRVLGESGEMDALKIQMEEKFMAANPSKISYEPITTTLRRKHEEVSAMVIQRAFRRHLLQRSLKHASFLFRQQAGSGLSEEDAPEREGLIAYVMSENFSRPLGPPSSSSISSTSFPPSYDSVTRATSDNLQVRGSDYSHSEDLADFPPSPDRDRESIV
# Test Details: Late INa screening assay (QPatch whole cell patch clamp)
# Assay type: cell-based
# Condition Set: percent block of late INa, compound at 1 μM, 10 μM Tefluthrin, HEK293 hNav1.5; read-out: Late INa 1 μM
Mention the unit after the number when you answer.

{"columns": ["Compound", "System", "Result"],
 "data": [
  ["O=C1c2cc(-c3ccc(C(F)(F)F)cc3)ccc2SCN1Cc1ccccc1Cl [Compound X-5]", "wild-type human cardiac sodium channel, hNav1.5 (late INa) (Homo sapiens, UniProt Q14524)", "57%"]
]}

Data request: Answer with the recorded inhibition at 1 µM for the compound listed here: Cc1nc(Cn2nnc3ccc(-c4ccc(OC(F)(F)F)cc4)cc3c2=O)no1 [II-6]
Data returned: 43%

Data request: Answer with the recorded inhibition at 1 µM for the compound listed here: CC(C)(C)OC(=O)N1CCC[C@@H]1C(=O)N1CCc2ccc(-c3ccc(C(F)(F)F)cc3)cc2C1 [IX-114]
Data returned: 20%

Data request: Answer with the recorded inhibition at 1 µM for the compound listed here: Cn1ccnc1C(=O)N1CCc2ccc(-c3ccc(C(F)(F)F)cc3)cc2C1 [IX-80]
Data returned: 40%

Data request: Answer with the recorded inhibition at 1 µM for the compound listed here: Cc1nn(C)c(C)c1C(=O)N1CCc2ccc(-c3ccc(C(F)(F)F)cc3)cc2C1 [IX-26]
Data returned: 15%

Data request: Answer with the recorded inhibition at 1 µM for the compound listed here: O=c1c2cc(-c3ccc(OC(F)(F)F)cc3)ccc2nnn1CC1(COc2ncccn2)CC1 [II-80]
Data returned: 42%

###

# System: UniProt:Q14524
# Test Details: Peak INa screening assay (tonic and use-dependent block)
# Format: cell-based
# Condition Set: use-dependent block of peak INa, 3 Hz, 1 μM; read-out: Peak UDB 1 μM
Entries are sorted into classes by inhibition at 1 µM as follows: low (below 7%), moderate (7% to below 20%), high (20% or more)

{"columns": ["Compound", "Discrete Label"],
 "data": [
  ["Cc1noc(Cn2nnc3ccc(-c4ccc(OC(F)(F)F)cc4)cc3c2=O)n1 [II-3]", "moderate"],
  ["Cc1cc(C)n(CC2(Cn3nnc4ccc(-c5ccc(OC(F)(F)F)cc5)cc4c3=O)CC2)n1 [II-64]", "moderate"],
  ["O=c1c2cc(-c3ccc(OC(F)(F)F)cc3)ccc2nnn1Cc1coc(C2CC2)n1 [II-100]", "low"]
]}

Continue with the next compound.
Data request: Class? Entry: O=C(c1ncc[nH]1)N1CCc2ccc(-c3ccc(C(F)(F)F)cc3)cc2C1 [IX-57]
Data returned: low

###

# System: wild-type human cardiac sodium channel, hNav1.5 (late INa) (Homo sapiens)
# Test Details: Late INa screening assay (QPatch whole cell patch clamp)
# Assay type: cell-based
# Condition Set: % inhibition at 1 μM; read-out: NAv1.5*-LATE-
Reported inhibition at 1 µM values for a set of compounds
Output spec: scalar in %, unitless text.

As a guide, the following entries are already answered.
{"columns": ["Smiles", "Number"],
 "data": [
  ["O=c1c2cc(-c3ccc(OC(F)(F)F)cc3)ccc2nnn1Cc1nnc(C2CC2)s1", 39],
  ["Cc1noc(Cn2cnc3ccc(-c4ccc(OC(F)(F)F)cc4)cc3c2=O)n1", 49]
]}

Data request: Answer with the recorded inhibition at 1 µM for the compound listed here: O=c1c2cc(-c3ccc(OC(F)(F)F)cc3)ccc2nnn1CC1(CN2CCOCC2)CC1
Data returned: 48

Data request: Answer with the recorded inhibition at 1 µM for the compound listed here: O=c1c2cc(-c3ccc(OC(F)(F)F)cc3)ccc2nnn1CCc1ccncn1
Data returned: 61

###

# Test Details: Microsomal stability assay, human
# Assay type: in vitro ADME
# Condition Set: metabolic stability, human liver microsomes 0.5 mg/mL, substrate 3 uM
Reported MS Human THalf values for a set of compounds
Output spec: scalar in min, unitless text.

As a guide, the following entries are already answered.
{"columns": ["Compound", "MS Human THalf [min]"],
 "data": [
  ["Cc1cc(Cn2nnc3ccc(-c4ccc(OC(F)(F)F)cc4)cc3c2=O)on1 [II-25]", 363],
  ["Cc1noc(Cn2nnc3ccc(-c4ccc(Oc5ccc(Cl)cc5)cc4)cc3c2=O)n1 [II-16]", 74],
  ["O=c1c2cc(-c3ccc(OC(F)(F)F)cc3)ccc2cnn1Cc1cccnc1C1CC1 [III-20]", 41],
  ["N#Cc1ccnc(OCCn2nnc3ccc(-c4ccc(OC(F)(F)F)cc4)cc3c2=O)n1 [II-36]", 157],
  ["Cn1ccnc1C(=O)N1CCc2ccc(-c3ccc(C(F)(F)F)cc3)cc2C1 [IX-80]", 170],
  ["O=C(Cc1ccccn1)N1CCc2ccc(-c3ccc(C(F)(F)F)cc3)cc2C1 [IX-29]", 33]
]}

Data request: Answer with the recorded MS Human THalf for the compound listed here: O=c1c2cc(-c3ccc(OC(F)(F)F)cc3)ccc2nnn1Cc1coc(C2CC2)n1 [II-100]
Data returned: 52

Data request: Answer with the recorded MS Human THalf for the compound listed here: O=C1c2cc(-c3ccc(C(F)(F)F)cc3)ccc2SCN1Cc1ccccn1 [Compound X-3]
Data returned: 36

Data request: Answer with the recorded MS Human THalf for the compound listed here: O=c1c2cc(-c3ccc(OC(F)(F)F)cc3)ccc2nnn1CCn1cccn1 [II-13]
Data returned: 149

###

Reported inhibition at 1 µM values for a set of compounds
# System: Human Nav1.2 (Homo sapiens, UniProt Q99250)
# Construct: expressed in transfected cells
# Sequence (Q99250 whole entry): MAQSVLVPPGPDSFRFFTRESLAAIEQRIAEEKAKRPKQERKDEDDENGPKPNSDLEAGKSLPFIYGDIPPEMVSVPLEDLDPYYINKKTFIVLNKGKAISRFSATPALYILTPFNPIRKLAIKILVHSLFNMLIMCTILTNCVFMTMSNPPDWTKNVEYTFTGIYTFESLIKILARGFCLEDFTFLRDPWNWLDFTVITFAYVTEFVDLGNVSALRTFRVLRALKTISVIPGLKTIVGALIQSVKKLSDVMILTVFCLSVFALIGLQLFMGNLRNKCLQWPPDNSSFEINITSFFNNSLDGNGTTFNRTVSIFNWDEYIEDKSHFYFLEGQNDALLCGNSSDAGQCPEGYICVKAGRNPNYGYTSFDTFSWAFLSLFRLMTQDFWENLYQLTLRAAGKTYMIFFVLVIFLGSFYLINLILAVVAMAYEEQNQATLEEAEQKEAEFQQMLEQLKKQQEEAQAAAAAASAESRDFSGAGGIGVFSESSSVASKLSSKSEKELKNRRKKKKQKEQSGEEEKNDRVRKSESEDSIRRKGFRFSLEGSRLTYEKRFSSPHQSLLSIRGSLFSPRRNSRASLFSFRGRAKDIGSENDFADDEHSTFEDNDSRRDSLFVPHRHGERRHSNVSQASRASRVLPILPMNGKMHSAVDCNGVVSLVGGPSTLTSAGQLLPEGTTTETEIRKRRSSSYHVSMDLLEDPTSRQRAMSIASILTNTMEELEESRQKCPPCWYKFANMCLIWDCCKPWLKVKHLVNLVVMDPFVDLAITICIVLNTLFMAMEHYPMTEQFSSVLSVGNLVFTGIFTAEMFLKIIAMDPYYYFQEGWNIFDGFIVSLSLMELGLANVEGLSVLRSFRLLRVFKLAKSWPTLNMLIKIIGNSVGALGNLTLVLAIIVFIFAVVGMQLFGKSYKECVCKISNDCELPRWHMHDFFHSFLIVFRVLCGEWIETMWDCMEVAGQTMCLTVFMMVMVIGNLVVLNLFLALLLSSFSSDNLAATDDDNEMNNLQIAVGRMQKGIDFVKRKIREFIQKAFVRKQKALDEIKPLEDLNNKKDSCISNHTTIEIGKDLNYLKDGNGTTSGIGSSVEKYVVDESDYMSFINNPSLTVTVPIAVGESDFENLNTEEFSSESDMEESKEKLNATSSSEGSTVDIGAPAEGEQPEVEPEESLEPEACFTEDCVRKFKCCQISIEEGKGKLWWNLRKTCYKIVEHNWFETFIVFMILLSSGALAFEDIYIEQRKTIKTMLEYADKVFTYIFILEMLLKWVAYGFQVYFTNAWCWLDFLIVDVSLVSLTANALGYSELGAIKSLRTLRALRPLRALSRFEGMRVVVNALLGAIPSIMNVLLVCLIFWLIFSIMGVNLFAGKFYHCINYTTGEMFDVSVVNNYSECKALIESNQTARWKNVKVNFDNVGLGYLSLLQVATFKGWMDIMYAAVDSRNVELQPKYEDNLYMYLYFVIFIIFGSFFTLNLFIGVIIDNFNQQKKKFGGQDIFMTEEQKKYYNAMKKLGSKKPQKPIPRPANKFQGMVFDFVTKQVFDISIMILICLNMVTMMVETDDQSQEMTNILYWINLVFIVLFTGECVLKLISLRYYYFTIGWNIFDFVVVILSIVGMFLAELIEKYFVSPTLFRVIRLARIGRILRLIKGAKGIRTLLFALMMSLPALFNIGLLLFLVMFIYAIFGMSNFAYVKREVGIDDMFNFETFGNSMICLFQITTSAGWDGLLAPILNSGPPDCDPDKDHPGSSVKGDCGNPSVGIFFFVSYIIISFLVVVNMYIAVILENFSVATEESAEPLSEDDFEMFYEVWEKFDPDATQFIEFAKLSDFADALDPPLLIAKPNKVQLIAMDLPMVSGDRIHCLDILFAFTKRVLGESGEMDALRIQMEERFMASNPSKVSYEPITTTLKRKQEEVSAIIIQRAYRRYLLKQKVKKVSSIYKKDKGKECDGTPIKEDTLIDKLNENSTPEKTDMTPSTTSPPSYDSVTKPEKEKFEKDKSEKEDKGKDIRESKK
# Test Details: Nav1.2 use-dependent block, whole-cell voltage clamp
# Format: cell-based
# Condition Set: use-dependent block 10 Hz, read-out: NAv1.2*-CHAN TEST-UDB-10 HZ-
Output spec: scalar in %, unitless text.

As a guide, the following entries are already answered.
{"columns": ["Smiles", "System", "Unit Label", "inhibition at 1 µM"],
 "data": [
  ["Cc1noc(Cn2cnc3ccc(-c4ccc(OC(F)(F)F)cc4)cc3c2=O)n1", "Human Nav1.2 (Homo sapiens, UniProt Q99250)", "%", 7.1],
  ["O=c1c2cc(-c3ccc(OC(F)(F)F)cc3)ccc2cnn1Cc1ncccn1", "Human Nav1.2 (Homo sapiens, UniProt Q99250)", "%", 5.5],
  ["Cc1noc(Cn2nnc3ccc(-c4ccc(OC(F)(F)F)cc4)cc3c2=O)n1", "Human Nav1.2 (Homo sapiens, UniProt Q99250)", "%", -3.2],
  ["O=C1c2cc(-c3ccc(OC(F)(F)F)cc3)ccc2OCN1Cc1ccccn1", "Human Nav1.2 (Homo sapiens, UniProt Q99250)", "%", 11.7]
]}

Data request: Answer with the recorded inhibition at 1 µM for the compound listed here: O=c1c2cc(-c3ccc(OC(F)(F)F)cc3)ccc2nnn1Cc1noc(C2CC2)n1
Data returned: -0.7

Data request: Answer with the recorded inhibition at 1 µM for the compound listed here: O=c1c2cc(-c3ccc(OC(F)(F)F)cc3)ccc2cnn1CCn1cccn1
Data returned: 3.5

Data request: Answer with the recorded inhibition at 1 µM for the compound listed here: Cc1nc(Cn2cnc3ccc(-c4ccc(OC(F)(F)F)cc4)cc3c2=O)no1
Data returned: 8

Data request: Answer with the recorded inhibition at 1 µM for the compound listed here: COc1cc(OC)nc(Cn2ncc3ccc(-c4ccc(OC(F)(F)F)cc4)cc3c2=O)n1
Data returned: -6

###

# System: wild-type human cardiac sodium channel, hNav1.5 (late INa) (Homo sapiens)
# Test Details: Late INa screening assay (QPatch whole cell patch clamp)
# Assay type: cell-based
# Condition Set: percent block of late INa, compound at 1 μM, 10 μM Tefluthrin, HEK293 hNav1.5; read-out: Late INa 1 μM
# Experimental: The late sodium current (Late INa) and peak sodium current (Peak INa) assays are performed on an automated electrophysiology platform, QPatch 16× (Sophion Bioscience, Copenhagen, Denmark), which uses the whole cell patch clamp technique to measure currents through the cell membrane of up to 16 cells at a time. […] Currents through open sodium channels are automatically recorded and stored in the Sophion Bioscience Oracle database (Sophion Bioscience, Copehagen, Denmark). […]
Readout Type: inhibition at 1 µM

Data request: Answer with the recorded inhibition at 1 µM for the compound listed here: O=c1c2cc(-c3ccc(OC(F)(F)F)cc3)ccc2cnn1Cc1ccccc1
Data returned: 18%

###

# Test Details: Microsomal stability assay, human
# Format: in vitro ADME
# Condition Set: metabolic stability, human liver microsomes 0.5 mg/mL, substrate 3 uM
Label Not fulfilled if MS Human THalf falls below 50 min; label Fulfilled in every other case.

Solved entries:
{"columns": ["Smiles", "Discrete Label"],
 "data": [
  ["O=c1c2cc(-c3ccc(OC(F)(F)F)cc3)ccc2nnn1CC1(CN2CCOCC2)CC1", "Not fulfilled"],
  ["O=c1c2cc(-c3ccc(OC(F)(F)F)cc3)ccc2cnn1Cc1ncc(Cl)cn1", "Fulfilled"],
  ["Cc1cnc(Cn2nnc3ccc(-c4ccc(OC(F)(F)F)cc4)cc3c2=O)o1", "Fulfilled"]
]}

Data request: Reported MS Human THalf at or above 50 min? Cc1noc(Cn2ncc3ccc(-c4ccc(OC(F)(F)F)cc4)cc3c2=O)n1
Data returned: Fulfilled

Data request: Reported MS Human THalf at or above 50 min? O=C1c2cc(-c3ccc(C(F)(F)F)cc3)ccc2SCN1Cc1ncccc1F
Data returned: Not fulfilled

Data request: Reported MS Human THalf at or above 50 min? O=C(c1ncccn1)N1CCc2ccc(-c3ccc(C(F)(F)F)cc3)cc2C1
Data returned: Fulfilled

Data request: Reported MS Human THalf at or above 50 min? O=c1c2cc(-c3ccc(OC(F)(F)F)cc3)ccc2nnn1Cc1nnc(C2CC2)o1
Data returned: Fulfilled

Data request: Reported MS Human THalf at or above 50 min? O=C1c2cc(-c3ccc(C(F)(F)F)cc3)ccc2CCN1Cc1ncccn1
Data returned: Fulfilled
